- test_system: T1, Full length human TfR on CHO cells (human, UniProt P02786 1-760)
- T1 construct: also called CHO + huTfR; CHO + hTfR
- T1 sequence (P02786 whole entry): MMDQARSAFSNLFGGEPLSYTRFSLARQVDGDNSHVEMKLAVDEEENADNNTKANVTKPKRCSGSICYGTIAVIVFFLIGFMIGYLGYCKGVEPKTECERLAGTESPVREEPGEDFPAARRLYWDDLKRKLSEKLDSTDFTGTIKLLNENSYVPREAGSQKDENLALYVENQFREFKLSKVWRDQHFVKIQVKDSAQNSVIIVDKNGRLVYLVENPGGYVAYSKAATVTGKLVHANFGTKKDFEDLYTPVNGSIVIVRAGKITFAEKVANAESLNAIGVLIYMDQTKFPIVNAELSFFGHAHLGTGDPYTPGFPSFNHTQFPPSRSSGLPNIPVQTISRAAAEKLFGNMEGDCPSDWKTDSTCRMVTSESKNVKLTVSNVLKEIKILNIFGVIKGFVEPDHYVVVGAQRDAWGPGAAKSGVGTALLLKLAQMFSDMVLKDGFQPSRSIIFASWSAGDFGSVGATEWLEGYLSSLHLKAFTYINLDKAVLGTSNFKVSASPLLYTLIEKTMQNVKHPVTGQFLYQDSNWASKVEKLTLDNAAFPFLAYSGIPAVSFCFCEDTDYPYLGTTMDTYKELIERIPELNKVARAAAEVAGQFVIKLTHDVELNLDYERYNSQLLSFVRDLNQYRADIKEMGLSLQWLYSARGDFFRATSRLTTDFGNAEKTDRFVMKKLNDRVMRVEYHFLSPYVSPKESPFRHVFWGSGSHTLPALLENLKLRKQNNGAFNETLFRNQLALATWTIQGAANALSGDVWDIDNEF
- measurement_protocol: FACS MFI, supernatant
result_type: fold over parental (CHO WT)
For clarity, give the value followed by its unit.

In the examples that follow, each entry is paired with its recorded fold over parental (CHO WT).
[
  {
    "binder": "TfR8 (mouse hybridoma antibody) (antibody, V domains shown, mouse IgG in hybridoma supernatant) VH: QVQLQQSGAELVRPGTSVKVSCKASGYAFTNYLIEWVKQRPGQGLEWIGVINPGSGGTNYNEKFKGKATLTADKSSSTAYMQLSSLTSDDSAVYFCARRSPYFDYWGQGTTLTVSS VL: SIVMTQTPKFLLVSAGDRVTITCKASQSVSNDVAWYQQKPGQSPKLLIYYASNRYTGVPDRFTGSGYGTDFTFTISTVQAEDLAVYFCHQDYISPTFGGGTKLEIK",
    "fold over parental (CHO WT)": "215 fold"
  },
  {
    "binder": "TfR1 (mouse hybridoma antibody) (antibody, V domains shown, mouse IgG in hybridoma supernatant) VH: QVQLQQSGPELVKPGASVKMSCKASGYTFTNYYIHWVKQRPGQGLEWIGWIYPGDGSTKYNEKFKGKTTLTADKSSSTAYMLLSSLTSEDSAIYFCARDGSSAPKFTYWGQGTLVTVSA VL: DIVMTQSPSSLTVTAGEKVTMRCKSSQSLLNSGNQKNYLTWYQQKPGQPPKLLIYWASTRESGVPDRFTGSGSGTDFTLTISSVQAEDLAVYYCQNDYSYPLTFGAGTKLELK",
    "fold over parental (CHO WT)": "228 fold"
  }
]

The record that follows has no fold over parental (CHO WT) shown yet.
query: Form field: reported fold over parental (CHO WT) of TfR23 (mouse hybridoma antibody) (antibody, V domains shown, mouse IgG in hybridoma supernatant) VH: DVQLQESGPGLVKPSQSLSLTCTVTGYSITSDYAWNWIRQFPGNKLEWMGYISYSGSTSYNPSLKSRISITRDTSKNQFFLQLNSVTTEDTATYYCTSWGYRYLEDYWGQGTSVTVSS VL: QIVLTQSPAIMSASPGERVTMTCSASSSISSLHWYQQKPGTSPKKWIYDTSKLASGVPARFSGSGSGTSYSLAISSMEAEDAATYYCHQRSSYPWTFGGGTKLEIK
result: 279 fold
